Experiment: Human HepG2 cell viability assay in 384 well format
Type: toxicity, cell-based
Parameters: dose 125 nL, time 70.5 hour; concentration not given beside the values
Conditions: HepG2 cells, read-out: Inhibition
In this section we review reported cytotoxicity at 70.5 h values for a set of compounds.
The figure you give is taken to be in %; do not add the unit.

Previously resolved entries follow.
compound	display.unit	cytotoxicity at 70.5 h
Cc1cc(C(=O)N2CCCC(Cn3cc(C4CC4)nn3)C2)nc(C)n1 (stereo unspecified)	%	-13.2
Fc1cnc(N2CCc3nnc(COc4ccccn4)n3CC2)nc1	%	-3.38
Cc1ccc2cc(C(=O)N3CCCC3Cn3cccn3)[nH]c2c1 (stereo unspecified)	%	24.4
CS(=O)(=O)NCC(=O)N[C@H]1CN(CC2CC2)C[C@@H]1c1ccccc1	%	-9.72

Exercise: Field request: cytotoxicity at 70.5 h | item: CC(C)(C)c1noc(CCC(=O)N(CC2CCOC2)C2CC2)n1 (stereo unspecified)
Key: 2.82

Exercise: Field request: cytotoxicity at 70.5 h | item: Cc1ccc(OCC2CCCN(C(=O)Cn3ccccc3=O)C2)cc1 (stereo unspecified)
Key: 25

Exercise: Field request: cytotoxicity at 70.5 h | item: CC(C)N1CC2(CCCN(c3ncc(Cl)cc3F)C2)CCC1=O (stereo unspecified)
Key: -4.82

Exercise: Field request: cytotoxicity at 70.5 h | item: CCOC(=O)C1CCN(Cc2csc(C(C)(C)C)n2)CC1
Key: -2.2

Exercise: Field request: cytotoxicity at 70.5 h | item: O=C(c1ccsc1)N1CCc2c(CN3CCCC3)n[nH]c2C1
Key: 0.233

Exercise: Field request: cytotoxicity at 70.5 h | item: Cc1nc(C)n(CC2CCCN(Cc3cccc(C(N)=O)c3)C2)n1 (stereo unspecified)
Key: -1.85

Exercise: Field request: cytotoxicity at 70.5 h | item: CC(C)c1ccc(S(=O)(=O)NC2(CC(N)=O)CCC2)cc1
Key: 2.8

---

Assay: Human HepG2 cell viability assay in 384 well format
Format: toxicity, cell-based
Set-up: dose 125 nL, time 70.5 hour; concentration not given beside the values
Settings: HepG2 cells, read-out: Inhibition
recorded.metric: cytotoxicity at 70.5 h (%)
The figure you give is taken to be in %; do not add the unit.

compound	display.unit	cytotoxicity at 70.5 h
CCc1ccc(C2CC(=O)Nc3cc(NS(C)(=O)=O)ccc32)o1 (stereo unspecified)	%	31.4

Exercise: Field request: cytotoxicity at 70.5 h | item: CN1CCc2c(C#N)c(NCCCN3CCOCC3)n3cnnc3c2C1
Key: -14.3

Exercise: Field request: cytotoxicity at 70.5 h | item: CC1(C)CC(N(Cc2ccccc2)Cc2cccnc2)CC(C)(C)N1
Key: 30.7

---

Experiment: Human HepG2 cell viability assay in 384 well format
Assay type: toxicity, cell-based
Parameters: dose 125 nL, time 70.5 hour; concentration not given beside the values
Settings: HepG2 cells, read-out: Inhibition
recorded.metric: cytotoxicity at 70.5 h (%)
The figure you give is taken to be in %; do not add the unit.

compound	cytotoxicity at 70.5 h [%]
c1ccc2cc(OCCN3CCn4c(nnc4C4CC4)C3)ccc2c1	31

Exercise: Field request: cytotoxicity at 70.5 h | item: Cc1ccoc1C(=O)N1CCOC2(CCCC2)C1
Key: -2.84

Exercise: Field request: cytotoxicity at 70.5 h | item: O=C([C@H]1C[C@H]2OCC[C@H]2N(Cc2cccnc2)C1)N1CCCCO1
Key: -7.65

Exercise: Field request: cytotoxicity at 70.5 h | item: Cc1ccc(C(=O)N2CCCCC2CNC(N)=O)cc1F (configuration not stated)
Key: 0.819

Exercise: Field request: cytotoxicity at 70.5 h | item: Cc1cnn(CCNCc2cccnc2)c1
Key: -1.13

Exercise: Field request: cytotoxicity at 70.5 h | item: CN1CCN(C[C@H]2OC[C@@H]3CCN(Cc4ccsc4)C[C@@H]32)CC1
Key: -0.843

Exercise: Field request: cytotoxicity at 70.5 h | item: CCOC(=O)c1ccc(S(=O)(=O)NCc2cccnc2N(C)C)cc1
Key: 34.2

Exercise: Field request: cytotoxicity at 70.5 h | item: Cc1ccc(C(=O)N2CCCC(n3cncn3)C2)o1 (configuration not stated)
Key: 1.71

Exercise: Field request: cytotoxicity at 70.5 h | item: COc1nn(C)cc1C(=O)NCC1(O)CCc2ccccc2C1 (configuration not stated)
Key: -5.25

Exercise: Field request: cytotoxicity at 70.5 h | item: Cc1nc(C)n(CC2CN(CC(=O)NC3CCCC3)CCO2)n1 (configuration not stated)
Key: -7.31

Exercise: Field request: cytotoxicity at 70.5 h | item: CO[C@H]1CNC[C@@H]1NC(=O)CCc1nc(-c2ccccc2)no1
Key: -0.167

Exercise: Field request: cytotoxicity at 70.5 h | item: CN(C)C(=O)CCS(=O)(=O)Cc1coc(-c2ccc(F)cc2)n1
Key: -16.4

Exercise: Field request: cytotoxicity at 70.5 h | item: CCC(NC1CCCC1)c1ccc(S(C)(=O)=O)cc1 (configuration not stated)
Key: -12.8

Exercise: Field request: cytotoxicity at 70.5 h | item: CCC(Nc1cccc(OC)c1)C(=O)N(CCOC)Cc1cnn(C)c1 (configuration not stated)
Key: -1.31

Exercise: Field request: cytotoxicity at 70.5 h | item: Cc1ccc(-n2cc(C)cn2)c(NC(=O)NC2(C)CCOC2)c1 (configuration not stated)
Key: -2.69
